compounds and their reported CC50 at 24 h
Assay method text: in vitro
Condition label: rat, gh3-tre-luc cells, AC50 (uM) modified / 1000
Where a name gives a salt, the structure may show the parent alone.

Take a look at these entries with their results.
1. Cc1cc(N)c2cc(NC(=O)Nc3ccc4nc(C)cc(N)c4c3)ccc2n1 [Aminoquinuride dihydrochloride]	35 µM
2. CC(C)OC(=S)S [Proxan-sodium]	> 90 µM
3. OC[C@H]1O[C@@H]2O[C@H]3[C@H](O)[C@@H](O)[C@@H](O[C@H]4[C@H](O)[C@@H](O)[C@@H](O[C@H]5[C@H](O)[C@@H](O)[C@@H](O[C@H]6[C@H](O)[C@@H](O)[C@@H](O[C@H]7[C@H](O)[C@@H](O)[C@@H](O[C@H]8[C@H](O)[C@@H](O)[C@@H](O[C@H]9[C@H](O)[C@@H](O)[C@@H](O[C@H]1[C@H](O)[C@H]2O)O[C@@H]9CO)O[C@@H]8CO)O[C@@H]7CO)O[C@@H]6CO)O[C@@H]5CO)O[C@@H]4CO)O[C@@H]3CO	> 30 µM
4. Cc1ccc(NC(=O)N(C)C)cc1NC(=O)N(C)C	> 90 µM
5. CCN(CC)CCOc1ccc2c(c1)C(=O)c1cc(OCCN(CC)CC)ccc1-2	> 50 µM

Then there is this compound:
Q) Supply measured CC50 at 24 h of CC1(C)CC/C(=C\c2ccc(Cl)cc2)C1(O)Cn1cncn1 (stereo not drawn) in your reply.
A) > 90 µM
